Source listed as paper PMC4618637.

Format: in vivo, rat
condition label: male, Sprague Dawley, rat, plasma from peripheral blood, po, 0.3 g/kg
measured property: AUC(0-t) (ng·h/mL)

[[record]]
compound = "CC(C)=CCC[C@](C)(O[C@@H]1O[C@H](CO[C@@H]2O[C@H](CO)[C@@H](O)[C@H](O)[C@H]2O)[C@@H](O)[C@H](O)[C@H]1O)[C@H]1CC[C@]2(C)[C@@H]1[C@H](O)C[C@@H]1[C@@]3(C)CC[C@H](O[C@@H]4O[C@H](CO)[C@@H](O)[C@H](O)[C@H]4O[C@@H]4O[C@H](CO)[C@@H](O)[C@H](O)[C@H]4O)C(C)(C)[C@@H]3CC[C@]12C [Rb1, ginsenoside Rb1]"
measured_property = "AUC(0-t)"
unit_text = "ng·h/mL"
endpoint_result = 34.3


====

assay name: Portal blood pharmacokinetics of TU-100 ingredients after single oral TU-100
Format: in vivo, rat
condition label: male, Sprague Dawley, rat, plasma from portal blood, po, 0.3 g/kg
measured property: AUC(0-t) (ng·h/mL)

[[record]]
compound = "CCCCC[C@H](O)CC(=O)CCc1ccc(O)c(OC)c1 [6G, [6]-gingerol]"
endpoint_result = 59.7

[[record]]
compound = "CC(C)=CCC[C@](C)(O[C@@H]1O[C@H](CO[C@@H]2O[C@H](CO)[C@@H](O)[C@H](O)[C@H]2O)[C@@H](O)[C@H](O)[C@H]1O)[C@H]1CC[C@]2(C)[C@@H]1[C@H](O)C[C@@H]1[C@@]3(C)CC[C@H](O[C@@H]4O[C@H](CO)[C@@H](O)[C@H](O)[C@H]4O[C@@H]4O[C@H](CO)[C@@H](O)[C@H](O)[C@H]4O)C(C)(C)[C@@H]3CC[C@]12C [Rb1, ginsenoside Rb1]"
endpoint_result = 28.7


====

Type: in vivo
condition label: human ileal effluent 4 h after 5 g TU-100 oral, β-glucuronidase treatment −
measured property: % of ingested TU-100, Max (%)

[[record]]
compound = "CC(C)=CCC[C@](C)(O[C@@H]1O[C@H](CO)[C@@H](O)[C@H](O)[C@H]1O)[C@H]1CC[C@]2(C)[C@@H]1[C@H](O)C[C@@H]1[C@@]3(C)CC[C@H](O)C(C)(C)[C@@H]3[C@@H](O[C@@H]3O[C@H](CO)[C@@H](O)[C@H](O)[C@H]3O)C[C@]12C [Rg1, ginsenoside Rg1]"
endpoint_result = 114.0

[[record]]
compound = "C/C=C/C=C/C=C\\CC/C=C/C=C/C(=O)NCC(C)C"
endpoint_result = 68.1

[[record]]
compound = "C/C=C/C=C/C=C\\CC/C=C/C(=O)NCC(C)(C)O [HAS, hydroxy-α-sanshool]"
endpoint_result = 0.4

[[record]]
compound = "CC(C)=CCC[C@](C)(O[C@@H]1O[C@H](CO[C@@H]2O[C@H](CO)[C@@H](O)[C@H](O)[C@H]2O)[C@@H](O)[C@H](O)[C@H]1O)[C@H]1CC[C@]2(C)[C@@H]1[C@H](O)C[C@@H]1[C@@]3(C)CC[C@H](O[C@@H]4O[C@H](CO)[C@@H](O)[C@H](O)[C@H]4O[C@@H]4O[C@H](CO)[C@@H](O)[C@H](O)[C@H]4O)C(C)(C)[C@@H]3CC[C@]12C [Rb1, ginsenoside Rb1]"
endpoint_result = 77.5


====

Assay type: in vivo, rat
condition label: male, Sprague Dawley, rat, plasma from peripheral blood, po, 0.9 g/kg
measured property: AUC(0-t)

[[record]]
molecule = "CCCCC[C@H](O)CC(=O)CCc1ccc(O)c(OC)c1 [6G, [6]-gingerol]"
endpoint_result = "0.974 ng·h/mL"


====

As shown below, each of these molecules has a reported Cmax value.
assay name: Portal blood pharmacokinetics of TU-100 ingredients after single oral TU-100
Format: in vivo, rat
condition label: male, Sprague Dawley, rat, plasma from portal blood, po, 0.3 g/kg
measured property: Cmax

[[record]]
molecule = "CC(C)=CCC[C@](C)(O[C@@H]1O[C@H](CO[C@@H]2O[C@H](CO)[C@@H](O)[C@H](O)[C@H]2O)[C@@H](O)[C@H](O)[C@H]1O)[C@H]1CC[C@]2(C)[C@@H]1[C@H](O)C[C@@H]1[C@@]3(C)CC[C@H](O[C@@H]4O[C@H](CO)[C@@H](O)[C@H](O)[C@H]4O[C@@H]4O[C@H](CO)[C@@H](O)[C@H](O)[C@H]4O)C(C)(C)[C@@H]3CC[C@]12C [Rb1, ginsenoside Rb1]"
measured_property = "Cmax"
endpoint_result = "2.1 ng/mL"

[[record]]
molecule = "CCCCC[C@H](O)CC(=O)CCc1ccc(O)c(OC)c1 [6G, [6]-gingerol]"
measured_property = "Cmax"
endpoint_result = "38.3 ng/mL"


====

Format: in vivo, rat
condition label: male, Sprague Dawley, rat, plasma from peripheral blood, po, 0.3 g/kg
measured property: Tmax (h)

[[record]]
compound = "CC(C)=CCC[C@](C)(O[C@@H]1O[C@H](CO[C@@H]2O[C@H](CO)[C@@H](O)[C@H](O)[C@H]2O)[C@@H](O)[C@H](O)[C@H]1O)[C@H]1CC[C@]2(C)[C@@H]1[C@H](O)C[C@@H]1[C@@]3(C)CC[C@H](O[C@@H]4O[C@H](CO)[C@@H](O)[C@H](O)[C@H]4O[C@@H]4O[C@H](CO)[C@@H](O)[C@H](O)[C@H]4O)C(C)(C)[C@@H]3CC[C@]12C [Rb1, ginsenoside Rb1]"
unit_text = "h"
endpoint_result = 4.8


====

Type: in vivo, rat
condition label: male, Sprague Dawley, rat, plasma from peripheral blood, po, 0.9 g/kg
measured property: Cmax (ng/mL)

[[record]]
compound = "CCCCC[C@H](O)CC(=O)CCc1ccc(O)c(OC)c1 [6G, [6]-gingerol]"
measured_property = "Cmax"
endpoint_result = 0.676


====

Format: in vivo, rat
condition label: male, Sprague Dawley, rat, plasma from peripheral blood, po, 0.3 g/kg
measured property: Cmax

[[record]]
compound = "CC(C)=CCC[C@](C)(O[C@@H]1O[C@H](CO[C@@H]2O[C@H](CO)[C@@H](O)[C@H](O)[C@H]2O)[C@@H](O)[C@H](O)[C@H]1O)[C@H]1CC[C@]2(C)[C@@H]1[C@H](O)C[C@@H]1[C@@]3(C)CC[C@H](O[C@@H]4O[C@H](CO)[C@@H](O)[C@H](O)[C@H]4O[C@@H]4O[C@H](CO)[C@@H](O)[C@H](O)[C@H]4O)C(C)(C)[C@@H]3CC[C@]12C [Rb1, ginsenoside Rb1]"
endpoint_result = "2.12 ng/mL"


====

assay name: Portal blood pharmacokinetics of TU-100 ingredients after single oral TU-100
Format: in vivo, rat
condition label: male, Sprague Dawley, rat, plasma from portal blood, po, 0.3 g/kg
measured property: Tmax (h)

[[record]]
compound = "CCCCC[C@H](O)CC(=O)CCc1ccc(O)c(OC)c1 [6G, [6]-gingerol]"
endpoint_result = 1.31

[[record]]
compound = "CC(C)=CCC[C@](C)(O[C@@H]1O[C@H](CO[C@@H]2O[C@H](CO)[C@@H](O)[C@H](O)[C@H]2O)[C@@H](O)[C@H](O)[C@H]1O)[C@H]1CC[C@]2(C)[C@@H]1[C@H](O)C[C@@H]1[C@@]3(C)CC[C@H](O[C@@H]4O[C@H](CO)[C@@H](O)[C@H](O)[C@H]4O[C@@H]4O[C@H](CO)[C@@H](O)[C@H](O)[C@H]4O)C(C)(C)[C@@H]3CC[C@]12C [Rb1, ginsenoside Rb1]"
endpoint_result = 6


====

As shown below, each of these molecules has a reported AUC value.
assay name: Portal blood pharmacokinetics of TU-100 ingredients after single oral TU-100
Format: in vivo, rat
condition label: male, Sprague Dawley, rat, plasma from portal blood, po, 0.3 g/kg
measured property: AUC (ng·h/mL)

[[record]]
molecule = "CCCCC[C@H](O)CC(=O)CCc1ccc(O)c(OC)c1 [6G, [6]-gingerol]"
endpoint_result = 59.7

[[record]]
molecule = "CC(C)=CCC[C@](C)(O[C@@H]1O[C@H](CO[C@@H]2O[C@H](CO)[C@@H](O)[C@H](O)[C@H]2O)[C@@H](O)[C@H](O)[C@H]1O)[C@H]1CC[C@]2(C)[C@@H]1[C@H](O)C[C@@H]1[C@@]3(C)CC[C@H](O[C@@H]4O[C@H](CO)[C@@H](O)[C@H](O)[C@H]4O[C@@H]4O[C@H](CO)[C@@H](O)[C@H](O)[C@H]4O)C(C)(C)[C@@H]3CC[C@]12C [Rb1, ginsenoside Rb1]"
endpoint_result = 28.7


====

Format: in vivo, rat
condition label: male, Sprague Dawley, rat, plasma from peripheral blood, po, 0.9 g/kg
measured property: AUC (ng·h/mL)

[[record]]
compound = "CCCCC[C@H](O)CC(=O)CCc1ccc(O)c(OC)c1 [6G, [6]-gingerol]"
measured_property = "AUC"
endpoint_result = 0.974

